Assay: The drug is tested on WLS-082 corresponding to human gut metagenome with ENA study accession number: PRJEB37062 and ENA sample accession number: ERS12561751 for biotransformation under anaerobic condition. The drug concentrations were measured over 9 timepoints collected between 0 and 24 hours of incubation by liquid-chromatography-coupled mass spectrometry (LC–MS); also: call rule not given here
Details: 2 µM
measured_property: Bacterial Biotransformation

Prompt: Any idea what Bacterial Biotransformation was measured for Br.COc1ccc2c(c1)[C@]13CCCC[C@@H]1[C@H](C2)N(C)CC3.O [DEXTROMETHORPHAN HYDROBROMIDE] ?
Completion: Compound NOT metabolized

Prompt: Fill in: Bacterial Biotransformation of Nc1nc(NC2CC2)c2ncn([C@H]3C=C[C@@H](CO)C3)c2n1.Nc1nc(NC2CC2)c2ncn([C@H]3C=C[C@@H](CO)C3)c2n1.O=S(=O)(O)O [ABACAVIR SULFATE] is ___
Completion: Compound NOT metabolized

Prompt: Param item = CCN(CC)CCNC(=O)c1cc(S(C)(=O)=O)ccc1OC [TIAPRIDE] ; retrieve measured Bacterial Biotransformation.
Completion: Compound NOT metabolized

Prompt: So what does the record say about Bacterial Biotransformation for Nc1nnc(-c2cccc(Cl)c2Cl)c(N)n1 ?
Completion: Compound NOT metabolized
